- measured target: T1, His-tagged CEACAM1 (human, UniProt P13688 35-428)
- T1 construct: 45 kDa SPR analyte; also called CEACAM1-HIS; CEACAM1 analyte
- T1 sequence: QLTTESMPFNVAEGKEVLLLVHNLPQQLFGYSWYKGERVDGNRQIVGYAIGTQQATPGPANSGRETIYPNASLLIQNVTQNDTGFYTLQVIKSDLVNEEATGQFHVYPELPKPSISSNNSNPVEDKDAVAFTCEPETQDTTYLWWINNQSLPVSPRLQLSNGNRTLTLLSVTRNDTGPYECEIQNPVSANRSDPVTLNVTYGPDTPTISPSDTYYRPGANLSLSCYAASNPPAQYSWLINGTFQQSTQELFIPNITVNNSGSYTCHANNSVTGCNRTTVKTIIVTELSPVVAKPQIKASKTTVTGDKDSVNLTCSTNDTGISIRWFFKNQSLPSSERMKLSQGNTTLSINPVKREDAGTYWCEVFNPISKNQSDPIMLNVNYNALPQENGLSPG
- protocol description: SPR single-cycle, supernatant IgG captured
readout name: relative KD to parent

1) VH1/CP08E05 (antibody, IgG4, V domains shown, IgG4 (S241P), kappa; also called Parent VH/CP08E05) VH: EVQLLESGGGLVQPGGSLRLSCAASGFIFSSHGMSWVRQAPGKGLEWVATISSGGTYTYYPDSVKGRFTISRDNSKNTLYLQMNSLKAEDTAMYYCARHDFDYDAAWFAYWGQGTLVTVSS VL: EIVLTQSPATLSLSPGERATLSCRANSAVSYMYWYQQKPGQAPRPWIYLTSNRATGVPARFSGSGSGTDYTLTISSLEPEDFAVYYCQQWTTNPPTFGQGTKLEIK : 2.4

# evaluate next
// lookup relative KD to parent for VH1/CP08E01 (antibody, IgG4, V domains shown, IgG4 (S241P), kappa; also called Parent VH/CP08E01) VH: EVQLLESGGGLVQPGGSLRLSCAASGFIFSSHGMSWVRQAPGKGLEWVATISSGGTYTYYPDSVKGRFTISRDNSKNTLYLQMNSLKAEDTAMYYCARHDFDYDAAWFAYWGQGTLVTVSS VL: EIVLTQSPATLSLSPGERATLSCRANSAVSYMYWYQQKPGQAPRPWIYLTSNRATGVPARFSGSGSGTDYTLTISSLEPEDFAVYYCQQWTTFPPTFGQGTKLEIK
1.2
